system: Human alphaherpesvirus 1; assay: Antiviral activity against HSV-1 assessed at 6 ug/ml by plaque reduction assay relative to control; assay type: functional; parameters: scale not given: the % may be the effect or the level left
property: Activity
State the value, then name its unit.

Q: // output Activity; input CCC(=O)OC[C@H]1O[C@@H](n2cnc3c(N)ncnc32)[C@@H](O)[C@@H]1O ; system Human alphaherpesvirus 1
A: 83%

Q: // output Activity; input CCCC(=O)OC[C@H]1O[C@@H](n2cnc3c(N)ncnc32)[C@@H](O)[C@@H]1O ; system Human alphaherpesvirus 1
A: 67%

Q: // output Activity; input CCCCC(=O)OC[C@H]1O[C@@H](n2cnc3c(N)ncnc32)[C@@H](O)[C@@H]1O ; system Human alphaherpesvirus 1
A: 100%

Q: // output Activity; input Nc1ncnc2c1ncn2[C@@H]1O[C@H](CO)[C@@H](O)[C@@H]1O ; system Human alphaherpesvirus 1
A: 54%

* * *

Target: Adenosine deaminase (Bos taurus, UniProt P56658)
Sequence (P56658 whole entry): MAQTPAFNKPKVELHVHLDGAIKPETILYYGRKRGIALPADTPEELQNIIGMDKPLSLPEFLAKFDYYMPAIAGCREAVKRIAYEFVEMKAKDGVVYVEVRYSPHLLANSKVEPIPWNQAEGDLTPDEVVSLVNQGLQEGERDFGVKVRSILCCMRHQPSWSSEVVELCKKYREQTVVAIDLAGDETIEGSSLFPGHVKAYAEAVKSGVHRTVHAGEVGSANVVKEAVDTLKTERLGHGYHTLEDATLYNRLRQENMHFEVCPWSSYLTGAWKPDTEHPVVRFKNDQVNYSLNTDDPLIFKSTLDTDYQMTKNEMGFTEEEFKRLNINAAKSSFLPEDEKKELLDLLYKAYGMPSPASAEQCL
Assay: Stability of the compound assessed as calf mucosal adenosine deaminase-mediated drug metabolism
Assay type: ADME
Details: cattle
property: Stability

CC(C)(C)C(=O)OC[C@H]1O[C@@H](n2cnc3c(N)ncnc32)[C@@H](O)[C@@H]1O :: Stable
CC(C)CC(=O)OC[C@H]1O[C@@H](n2cnc3c(N)ncnc32)[C@@H](O)[C@@H]1O :: Stable
CCCCC(=O)OC[C@H]1O[C@@H](n2cnc3c(N)ncnc32)[C@@H](O)[C@@H]1O :: Stable
CCCCCC(=O)OC[C@H]1O[C@@H](n2cnc3c(N)ncnc32)[C@@H](O)[C@@H]1O :: Stable

Q: Quick one: give measured Stability for CC(C)(C)CC(=O)OC[C@H]1O[C@@H](n2cnc3c(N)ncnc32)[C@@H](O)[C@@H]1O
A: Stable

* * *

assay: Aqueous solubility of the compound at 0.1 M phosphate buffer after 16 hrs by UV spectrometry; type: physicochemical
Class (by solubility at 16 h) -- range 1: < 2000 µg/mL; range 2: ≥ 2000 µg/mL and < 8000 µg/mL; range 3: ≥ 8000 µg/mL

Q: Hi there! Could you help me figure out the category for CCCC(=O)OC[C@H]1O[C@@H](n2cnc3c(N)ncnc32)[C@@H](O)[C@@H]1O please?
A: range 3

Q: Hi there! Could you help me figure out the category for CC(C)(C)C(=O)OC[C@H]1O[C@@H](n2cnc3c(N)ncnc32)[C@@H](O)[C@@H]1O please?
A: range 2

Q: Hi there! Could you help me figure out the category for CCCCC(=O)OC[C@H]1O[C@@H](n2cnc3c(N)ncnc32)[C@@H](O)[C@@H]1O please?
A: range 3

Q: Hi there! Could you help me figure out the category for CCC(=O)OC[C@H]1O[C@@H](n2cnc3c(N)ncnc32)[C@@H](O)[C@@H]1O please?
A: range 3

Q: Hi there! Could you help me figure out the category for CC(=O)OC[C@H]1O[C@@H](n2cnc3c(N)ncnc32)[C@@H](O)[C@@H]1O please?
A: range 2

Q: Hi there! Could you help me figure out the category for CC(C)CC(=O)OC[C@H]1O[C@@H](n2cnc3c(N)ncnc32)[C@@H](O)[C@@H]1O please?
A: range 3

Q: Hi there! Could you help me figure out the category for CCCCCC(=O)OC[C@H]1O[C@@H](n2cnc3c(N)ncnc32)[C@@H](O)[C@@H]1O please?
A: range 2

Q: Hi there! Could you help me figure out the category for Nc1ncnc2c1ncn2[C@@H]1O[C@H](COC(=O)CCc2ccccc2)[C@@H](O)[C@@H]1O please?
A: range 1

Q: Hi there! Could you help me figure out the category for CCCCCCCC(=O)OC[C@H]1O[C@@H](n2cnc3c(N)ncnc32)[C@@H](O)[C@@H]1O please?
A: range 1

Q: Hi there! Could you help me figure out the category for Nc1ncnc2c1ncn2[C@@H]1O[C@H](COC(=O)c2ccccc2)[C@@H](O)[C@@H]1O please?
A: range 1
